Molecular target: HLA-A*68:01
Experiment: IEDB peptide-MHC binding, purified MHC/competitive/radioactivity; filed as Kd, often an IC50 or EC50 that approximates it; bounds were set here for any values at or beyond the usual limits of such assays
Details: source organism: Vaccinia virus WR
Listing: Kd of selected sequences

The following sequences have reported results that may help.
>>> data_value("SSNKDPITVY")
"≥ 42.8 µM"
>>> data_value("VSMTYLYNKY")
"≥ 70.2 µM"
>>> data_value("FTQHLLNIR")
"≥ 77.7 µM"

Value of Kd reported for the sequence PADCFLVKLK is ≥ 22.4 µM

Looking up KSPLPSLEY , I found its Kd recorded as ≥ 77.7 µM

Notebook: KAEMQLKIDK , Kd read as ≥ 25.2 µM

The measured Kd associated with YLIHDNIMY reads ≥ 26.9 µM

Form: sequence = KFLEFSNRVY ; Kd = ≥ 68.8 µM

Per the record, PIINTHSFY has Kd of ≥ 77.7 µM

Kd measured on KFGNSINVK = ≥ 46.4 µM

# Kd of ASKTINALVY = ≥ 41.8 µM

====

Target: HLA-A*02:02
Assay: IEDB peptide-MHC binding, purified MHC/competitive/radioactivity; filed as Kd, often an IC50 or EC50 that approximates it; bounds were set here for any values at or beyond the usual limits of such assays
Conditions: source organism: Vaccinia virus WR
pKd: −log10 of the molar value.
Consider the following sequences and their measured pKd readings.

Illustrative cases are given below, each with its answer.
>>> data_value("TTENAAYQVL")
"≤ 4.53"
>>> data_value("AIKQYGDIDL")
"≤ 4.63"

# next sequence below
Kindly note the recorded pKd for ELPVKTDIV , which is ≤ 4.64

====

Quick reference for pKd among some sequences
Target: HLA-B*54:01
Experiment: IEDB peptide-MHC binding, purified MHC/competitive/radioactivity; filed as Kd, often an IC50 or EC50 that approximates it; bounds were set here for any values at or beyond the usual limits of such assays
Settings: source organism: Vaccinia virus WR
pKd: −log10 of the molar value.

Below are worked cases with known answers.
>>> data_value("HPDFCKNRRY")
"≤ 4.31"
>>> data_value("SPLTLLIKTL")
"≤ 4.16"
>>> data_value("NPSILPSLI")
"≤ 4.13"

# ---- query sequence ----
Tested on HLA-B*54:01, the item EPLSPDTCL showed pKd equal to ≤ 4.11

====

Target: HLA-B*18:01
Assay: IEDB peptide-MHC binding, purified MHC/competitive/radioactivity; filed as Kd, often an IC50 or EC50 that approximates it; bounds were set here for any values at or beyond the usual limits of such assays
Settings: source organism: SARS coronavirus Tor2
recorded endpoint: Kd

Solved entries (count: 3):
>>> data_value("GENAVIPKG")
"≥ 77.5 µM"
>>> data_value("WEVGKPRPPL")
"≥ 23.9 µM"
>>> data_value("QEAYYRARAG")
"≥ 36.1 µM"

According to the records, this sequence REAACCHLA displays Kd of ≥ 31.4 µM

====

Molecular target: HLA-A*33:01
Test: IEDB peptide-MHC binding, purified MHC/competitive/radioactivity; filed as Kd, often an IC50 or EC50 that approximates it; bounds were set here for any values at or beyond the usual limits of such assays
Settings: source organism: Vaccinia virus WR
recorded endpoint: Kd

>>> data_value("VSLKKTNDK")
"≥ 54.8 µM"
>>> data_value("ASKTINALVY")
"≥ 70 µM"
>>> data_value("WVSLKKTNDK")
"≥ 70 µM"
>>> data_value("YLIHDNIMY")
"≥ 77.7 µM"
>>> data_value("IANSNIIKNK")
"≥ 39.3 µM"
>>> data_value("RTMPNESRVK")
"≥ 70 µM"

Next up:
Form field Kd, entry LSKRERQLAK : ≥ 57.9 µM

FYI, the data here is from the Immune Epitope Database (IEDB).
